Would you mind telling me the reported z-score of each entry?
EXPERIMENT_SUMMARY: P. aeruginosa biofilm formation inhibitors, primary screen, strain PAO1, LB-PBS medium, absorbance 600 nm (AID 1176); note: test concentration not given here
COND: P. aeruginosa PAO1 growth/biofilm, A600, 12 h; higher = more signal
Calls of active or inactive are those of the source. The rule behind the calls is not given here.

Worked examples, 5 compounds total:
{"columns": ["COMPOUND", "z-score"],
 "data": [
  ["COc1cccc(C(=O)O[C@H]2CC[C@]3(C)C4=C(CCC3C2(C)C)[C@]2(C)CC[C@H]([C@H](C)CCCC(C)C)[C@@]2(C)CC4)c1 (some centres not stated)", "0.671 (inactive)"],
  ["CC(C)(C)OC(=O)CC[C@]1(C(=O)N2CCCCC2)N=C(c2ccc(OCCCO)cc2)O[C@H]1c1ccccc1N=[N+]=[N-]", "0.466 (inactive)"],
  ["COc1ccc([Si](C)(C)[C@H]2[C@H](CCn3cc([C@H](O)c4ccccc4)nn3)O[C@@]3(C(=O)N(Cc4cccc(N5CCC5=O)c4)c4ccccc43)[C@@H]2C)cc1", "1.59 (inactive)"],
  ["O=C1OCCC=C[C@H]2OC34C=CCN(Cc5ccccc5)C(=O)[C@H]3N(CCCCCCO)C(=O)[C@@H]4C12 (some centres not stated)", "-0.208 (inactive)"],
  ["COc1ccccc1CN1C(=O)c2ccccc2[C@@H](C(=O)NCCN2CCOCC2)[C@@H]1c1ccc(CO)cc1", "1.56 (inactive)"]
]}

Count: 5. Required value per item: z-score.
1. COc1ccc(CCNC(=O)[C@@H]2c3ccccc3C(=O)N(Cc3ccc(OC(F)(F)F)cc3)[C@H]2c2ccc(CO)cc2)cc1
2. COc1cc(CO)ccc1OC(C)=O
3. COc1ccc(C#Cc2ccc3c(c2)[C@]2(C(=O)N3)[C@H](C(=O)NC[C@H](O)c3ccccc3)[C@H]3C(=O)O[C@H](c4ccccc4)[C@H](c4ccccc4)N3[C@@H]2c2ccccc2OCCO)cc1
4. CN(C)C(=O)[C@]1(CCC(=O)OC(C)(C)C)N=C(c2ccc(OCCCO)cc2)O[C@@H]1c1ccccc1N=[N+]=[N-]
5. CC(C)NC(=O)[C@@H]1c2ccccc2C(=O)N(Cc2ccccc2)[C@H]1c1ccc(CO)cc1

Reply text:
1. 1.52 (inactive)
2. -0.248 (inactive)
3. 2.4 (inactive)
4. -0.758 (inactive)
5. 0.292 (inactive)

---

Would you mind telling me the reported z-score of each entry?
EXPERIMENT_SUMMARY: FRG1 promoter luciferase signal modulators, primary screen, FRG1 inhibition for FSHD, cell-based, C2C12 myotubes, firefly/Renilla luciferase, luminescence (AID 1084)
COND: higher = more signal, called active from +8 up or from −8 down
Numbers only.

{"columns": ["COMPOUND", "z-score"],
 "data": [
  ["CC(C)OC(=O)CC(=O)CC(O)c1ccc(C#N)cc1 (stereo not drawn)", -0.711],
  ["COCCOC(=O)N1C(=O)[C@@]2(c3ccccc31)[C@H](c1ccc(O)cc1)N1[C@H](c3ccccc3)[C@H](c3ccccc3)OC(=O)[C@H]1[C@@H]2C(=O)N1CCc2cc(OC)c(OC)cc2C1", -1.47],
  ["O=C1O[C@@H](c2ccccc2)[C@@H](c2ccccc2)N2[C@@H](c3ccc(OCCO)cc3)[C@]3(C(=O)Nc4ccccc43)[C@@H](C(=O)Nc3nc4ccccc4s3)[C@H]12", -3.08],
  ["COC(=O)C[C@H]1O[C@]2(C(=O)N(Cc3ccccc3)c3ccc(NC(C)=O)cc32)[C@@H](C)[C@@H]1[Si](C)(C)c1ccc(OC)cc1", -1.98],
  ["CC(C)c1ccc(NN2C(C(O)c3ccc(N(C)C)cc3)C=CC3C(=O)N(c4ccccc4)C(=O)C32)cc1 (stereo not drawn)", 2.3],
  ["C=CCNC(=O)[C@@H]1[C@H]2C(=O)O[C@H](c3ccccc3)[C@H](c3ccccc3)N2[C@H](c2ccccc2OCCO)[C@@]12C(=O)Nc1ccc(C#CC3=CCCCC3)cc12", 0.0472],
  ["Cc1cc(C)c(C(O)C2C=CC3C(=O)N(c4ccccc4)C(=O)C3N2Nc2ccc(C#N)cc2)c(C)c1 (stereo not drawn)", -1.08],
  ["CC(=O)Nc1cc(Br)ccc1C(=O)O", 0.466]
]}

Count: 8. Required value per item: z-score.
1. COC(=O)[C@@]1(Cc2ccc(F)cc2)[C@H]2c3cc(C(=O)N4CCCC4)n(Cc4cccc5ccccc45)c3C[C@H]2CN1C(=O)c1ccccc1
2. COCCOC(=O)N1C(=O)[C@@]2(c3cc(C#Cc4ccc(OC)cc4)ccc31)[C@H](C(=O)N1CCN(c3ncccn3)CC1)[C@H]1C(=O)O[C@H](c3ccccc3)[C@H](c3ccccc3)N1[C@@H]2c1ccc(O)cc1
3. C=CCC(OC(C)=O)[C@@H]1[C@@H](N(Cc2cccc3ccccc23)C(=O)c2cccc3ccccc23)c2cc(OCCCO)ccc2N1C(=O)c1ccc2ccccc2n1 (stereo partly drawn)
4. CC(=O)NCCCC[C@@H]1NC(=O)[C@@H]2C[C@H](C(=O)NCCCCCCNC(=O)CS)[C@H](c3ccc(O)cc3)N2C1=O
5. COc1ccc(CCNC(=O)[C@@]2(Sc3ccc(C)cc3)CC(=O)N(Cc3ccccc3Cl)[C@@H]2c2ccc(CO)cc2I)cc1
6. COCCOC(=O)N1C(=O)[C@@]2(c3ccccc31)[C@H](C(=O)Nc1nc3ccccc3s1)[C@H]1C(=O)O[C@H](c3ccccc3)[C@H](c3ccccc3)N1[C@@H]2c1ccc(OCCO)cc1
7. COc1ccccc1CN1C(=O)c2ccccc2[C@@H](C(=O)NCCN2CCOCC2)[C@@H]1c1ccc(CO)cc1
8. O=C1OCCC=C[C@H]2OC34C=CCN(c5ccc6ccccc6c5)C(=O)[C@H]3N(CCCCCO)C(=O)[C@@H]4C12 (stereo partly drawn)

Reply text:
1: 0.272; 2: -1.3; 3: -2.01; 4: 1.5; 5: -2.03; 6: 2.77; 7: -2.69; 8: -0.517

---

MEASURED_TARGET: Homeobox protein Hox-A13 (Mus musculus)
EXPERIMENT_SUMMARY: inhibitors of HoxA13-DNA binding, primary screen, biochemical, fluorescence polarization, labeled oligonucleotide (AID 1185)
COND: 15 min, higher = more signal, called active from +8 up or from −8 down
ENDPOINT: z-score
One number for each entry.

Count: 2. Required value per item: z-score.
1. O=C(OCCF)C1=CCC(c2cccc(Cl)c2)O1 (configuration not stated)
2. CN1C(=O)C2C(C1=O)C1C=C(CCCO)C2C(c2cccs2)N1C (configuration not stated)

Reply text:
[-0.701, -9.72]

---

MEASURED_TARGET: Follistatin-related protein 3 (Homo sapiens) (UniProt O95633)
Sequence (O95633 whole entry, looked up): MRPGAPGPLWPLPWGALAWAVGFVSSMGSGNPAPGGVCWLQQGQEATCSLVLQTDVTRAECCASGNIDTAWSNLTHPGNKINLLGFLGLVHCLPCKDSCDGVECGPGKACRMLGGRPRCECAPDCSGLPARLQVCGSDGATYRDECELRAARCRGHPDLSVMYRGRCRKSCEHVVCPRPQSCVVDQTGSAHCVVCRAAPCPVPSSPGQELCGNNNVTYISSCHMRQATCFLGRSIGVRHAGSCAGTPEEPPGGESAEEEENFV
EXPERIMENT_SUMMARY: FSTL3 binders on small-molecule microarrays, primary screen, biochemical, small-molecule microarray, 635 nm fluorescence (AID 1105);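 note: score merges emission near 667 nm and signal to noise per printed spot across three slides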
COND: FSTL3 binding, higher = more signal
ENDPOINT: composite z-score
Answers are plain numbers.

{"columns": ["COMPOUND", "composite z-score"],
 "data": [
  ["COCCOC(=O)N1C(=O)[C@@]2(c3cc(C#CCCO)ccc31)[C@H](c1ccc(O)cc1)N1[C@H](c3ccccc3)[C@H](c3ccccc3)OC(=O)[C@H]1[C@@H]2C(N)=O", -0.0665],
  ["C=C(COC)/C(=C/C[C@H](OC(=O)c1ccncc1)c1cccc(OCCO)c1)c1cc(C(=O)OC)ccc1OC", 0.0001],
  ["NC(=O)NCC#Cc1ccc2c(c1)[C@]1(C(=O)N2)[C@H](C(=O)NC[C@H](O)c2ccccc2)[C@H]2C(=O)O[C@H](c3ccccc3)[C@H](c3ccccc3)N2[C@@H]1c1ccc(O)cc1", 0.553],
  ["COC(=O)[C@@]1(Cc2ccc(OC)cc2)[C@H]2c3cc(C(=O)N(C)C)n(Cc4c(OC)[nH]cc(C)c4=O)c3C[C@H]2CN1C(=O)c1ccccc1", 0.037],
  ["CC(C)C(=C=CC[C@H](O)c1ccccc1OCCO)C[C@H](O)c1ccccn1", -0.0639]
]}

Here's the next entry for you.
Inquiry: For the record CCOC(=O)C[C@H]1[C@H](OC(=O)c2ccc(-c3ccccc3)cc2)[C@@H](NC(=O)c2ccc(-c3ccccc3)cc2)c2cc(OCCCO)ccc2N1C(=O)Cc1ccc(OC)cc1 , what value of composite z-score is listed for Follistatin-related protein 3 (Homo sapiens) (UniProt O95633)?
Reply text: -0.0478

---

MEASURED_TARGET: Alpha-bungarotoxin (Bungarus multicinctus) (UniProt P60615)
Sequence (P60615 whole entry, looked up): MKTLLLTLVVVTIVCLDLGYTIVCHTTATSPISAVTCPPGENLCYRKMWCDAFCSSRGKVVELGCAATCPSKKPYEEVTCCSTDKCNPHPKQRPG
EXPERIMENT_SUMMARY: alpha-bungarotoxin binders on microarray, profiling panel, artefact control for SMM control protein annotation, biochemical, small-molecule microarray, Alexa647 label, 635/667 nm fluorescence (AID 1117)
COND: alpha-BTX-A647 binding fluorescence, higher = more signal
Would you mind telling me the reported composite z-score of each entry?

Worked examples, 3 compounds total:
{"columns": ["COMPOUND", "MEASURED_TARGET", "ENDPOINT", "REPORTED_RESULT"],
 "data": [
  ["O=C1OCC=C[C@H]2OC34C=CCN(c5ccc6ccccc6c5)C(=O)[C@H]3N(CCCO)C(=O)[C@@H]4[C@@H]12 (stereo partly drawn)", "Alpha-bungarotoxin (Bungarus multicinctus) (UniProt P60615)", "composite z-score", -0.871],
  ["N[C@@H](Cc1ccccc1)Cn1cc(-c2ccccc2)nn1", "Alpha-bungarotoxin (Bungarus multicinctus) (UniProt P60615)", "composite z-score", 0.588],
  ["COCCOC(=O)N1C(=O)[C@@]2(c3cc(C#CCNC(N)=O)ccc31)[C@H](c1ccc(O)cc1)N1[C@H](c3ccccc3)[C@H](c3ccccc3)OC(=O)[C@H]1[C@@H]2C(=O)NC[C@H](O)c1ccccc1", "Alpha-bungarotoxin (Bungarus multicinctus) (UniProt P60615)", "composite z-score", 0.834]
]}

Count: 7. Required value per item: composite z-score.
1. COc1ccc([Si](C)(C)[C@@H]2[C@@H](CCn3cc([C@H](O)c4ccccc4)nn3)O[C@]3(C(=O)N(Cc4ccc(N5C(=O)c6cccc7cccc5c67)cc4)c4ccccc43)[C@H]2C)cc1
2. C=CCOC(=O)[C@@H]1[C@H]2C(=O)O[C@H](c3ccccc3)[C@H](c3ccccc3)N2[C@H](c2ccc(OCCOC(=O)[C@@H]3C[C@@H]4C(=O)NCC(=O)N4[C@@H]3c3cccc(OCCO)c3)cc2)[C@@]12C(=O)Nc1ccc(I)cc12
3. CC(=O)NCCCC[C@@H]1NC(=O)[C@H]2C[C@@H](C(=O)NCCCCCC[N+](C)(C)C)[C@@H](c3cccc(OCCO)c3)N2C1=O
4. COCCOC(=O)N1C(=O)[C@@]2(c3ccccc31)[C@H](C(=O)NC[C@H](O)c1ccccc1)[C@H]1C(=O)O[C@H](c3ccccc3)[C@H](c3ccccc3)N1[C@@H]2c1ccc(OCCO)cc1
5. CCOC(=O)C1=CCC(c2ccc([N+](=O)[O-])cc2)N(S(=O)(=O)c2ccc(C)cc2)C1 (stereo not drawn)
6. Cc1ccc(S[C@]2(C(=O)NCC(C)C)CC(=O)N(Cc3ccccc3Cl)[C@@H]2c2ccc(CO)cc2)cc1
7. N#Cc1ccc(NN2C(C(O)c3ccc([N+](=O)[O-])cc3)C=CC3C(=O)N(c4ccccc4)C(=O)C32)cc1 (stereo not drawn)

Reply text:
0.152
1.75
2.04
0.247
0.159
0.86
0.752

Count: 3. Required value per item: composite z-score.
1. C=CCNC(=O)[C@@H]1[C@H]2C(=O)O[C@H](c3ccccc3)[C@H](c3ccccc3)N2[C@H](c2ccc(O)cc2)[C@@]12C(=O)N(C(=O)OCCOC)c1ccccc12
2. COc1ccc(C(O)C2C=CC3C(=O)N(C)C(=O)C3N2Nc2ccccc2)cc1OCc1ccccc1 (stereo not drawn)
3. O=C(OCCF)C1=CCC(c2cccc(Cl)c2)O1 (stereo not drawn)

Reply text:
1: 2.27; 2: 1.79; 3: 0.775
